Source of measurements: the RNAGym collection of RNA variant scans (doi:10.7554/elife.90254)

B1: LINE1-full (parent)
chain: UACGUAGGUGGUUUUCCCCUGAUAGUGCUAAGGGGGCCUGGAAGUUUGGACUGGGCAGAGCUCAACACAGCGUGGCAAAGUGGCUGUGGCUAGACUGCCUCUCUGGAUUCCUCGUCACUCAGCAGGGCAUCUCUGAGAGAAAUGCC

variants of: B1; experiment: self-cleavage, relative activity (ratio to wild type); higher = more cleavage; in vitro, sequencing; the parent is a self-cleaving ribozyme
Please mark T if the recorded self-cleavage is equal to or greater than 0.6, and F if it falls below.

Worked set:
Task: Evaluate A24G U47A : self-cleavage at minimum 0.6?
Result: T

Task: Item U47C A79U with self-cleavage of 0.6 or above?
Result: T

More entries:
Task: Threshold query (self-cleavage >= 0.6) on U47A C146U
Result: T

Task: self-cleavage >= 0.6 for A43G G125U ?
Result: T

Task: Is reported self-cleavage greater than or equal to 0.6 here: C95A G114A
Result: F

Task: Entry A65C A141G : is its self-cleavage no less than 0.6?
Result: F

Task: Is self-cleavage for U104A A117U at or above 0.6?
Result: T

Task: Does C28A A64G have a reported self-cleavage of at least 0.6?
Result: F

Task: # check: self-cleavage of U15C U100G is greater than or equal to 0.6
Result: T

Task: Given U47A U91C , state whether its self-cleavage is at least 0.6.
Result: T

Task: Does G11A G139A have a reported self-cleavage of at least 0.6?
Result: T

Task: Answer whether self-cleavage of U85A U100A is greater than or equal to 0.6.
Result: F

Task: Check the entry G33C A69G : does self-cleavage equal or exceed 0.6?
Result: F

Task: Dear colleague, could you confirm whether A6G A117G has self-cleavage at or above 0.6?
Result: T
